- System: S-G614 pseudovirus
- Test summary: microbe, parasite or virus in culture
- Format: cell-based
- Measurement context: read-out: EC50 against S-G614 pseudovirus in all three cell lines
Listed next: entries and their corresponding EC50.
Assay metric: EC50

- COc1ccc2cc1Oc1ccc(cc1)C[C@H]1c3c(cc4c(c3Oc3cc5c(cc3OC)CCN(C)[C@@H]5C2)OCO4)CCN1C: < 10 µM
- COc1ccc2cc1Oc1ccc(cc1)C[C@H]1c3cc(c(OC)cc3CCN1C)Oc1c(OC)c(OC)c(OC)c3c1[C@H](C2)N(C)CC3: < 10 µM
- CC1CCN(CC(O)COc2cccc(OCC(O)CN3CCC(C)CC3)c2)CC1 (centres unmarked): < 10 µM
- COc1ccc2cc1Oc1ccc(cc1)C[C@H]1c3cc(c(OC)cc3CCN1C)Oc1c(OC)c(OC)cc3c1[C@H](C2)N(C)CC3: < 10 µM
- COc1ccc(C[C@@H]2c3cc(Oc4cc(C[C@@H]5c6cc(OC)c(OC)cc6CCN5C)ccc4O)c(OC)cc3CCN2C)cc1: < 10 µM

----------
- Tested on: SARS-CoV-2 S-G614 pseudovirus
- Measurement context: human
Assay metric: SI (cytotoxicity)

• COc1c2c(cc3c1-c1c(cc4c(c1OC)OCO4)C[C@H](C)[C@H](C)C3)OCO2 = >3.43
• Cc1cccc2c3c(ccc12)C1=C(C(=O)C3=O)[C@@H](C)CO1 [SC24, Dihydrotanshinone I] = 0.90

----------
- Tested on: S-G614 pseudovirus
- Test summary: microbe, parasite or virus in culture
- Type: cell-based, SARS-CoV-2
- Measurement context: Pseudovirus, 293T/ACE2, read-out: 293T-ACE2 Cells EC50 BAPTA-AM (0μM)
pEC50: −log10 of the molar value.
Listed next: entries and their corresponding pEC50.
Assay metric: pEC50

• CC1CCN(CC(O)COc2cccc(OCC(O)CN3CCC(C)CC3)c2)CC1 (stereo not shown) [SC171] = 5.42
• COc1ccc(C[C@@H]2c3cc(Oc4cc(C[C@@H]5c6cc(OC)c(OC)cc6CCN5C)ccc4O)c(OC)cc3CCN2C)cc1 [SC185, Neferine] = 6.02
• COc1ccc2cc1Oc1ccc(cc1)C[C@H]1c3c(cc4c(c3Oc3cc5c(cc3OC)CCN(C)[C@@H]5C2)OCO4)CCN1C [SC9, Cepharanthine] = 6.50
• COc1ccc2cc1Oc1ccc(cc1)C[C@H]1c3cc(c(OC)cc3CCN1C)Oc1c(OC)c(OC)c(OC)c3c1[C@H](C2)N(C)CC3 [SC161, Hernandezine] = 6.95

----------
- Tested on: SARS-CoV-2 S-G614 pseudovirus
Assay metric: SI (cytotoxicity)

• CC(N)C12CC3CC(CC(C3)C1)C2.Cl (stereo not drawn) [SC16, Rimantadine (hydrochloride)] = >1.45
• Cl.N=c1ccn2c(n1)O[C@H]1[C@H](O)[C@@H](CO)O[C@H]12 [SC33, Ancitabine (hydrochloride)] = >4.94

----------
- System: VSV-G pseudovirus
- Test summary: microbe, parasite or virus in culture
- Assay type: cell-based
- Measurement context: Pseudovirus, read-out: VSV-G Pseudovirus EC50
Assay metric: EC50

- COc1ccc(C[C@@H]2c3cc(Oc4cc(C[C@@H]5c6cc(OC)c(OC)cc6CCN5C)ccc4O)c(OC)cc3CCN2C)cc1: > 50 µM
- COc1ccc(C[C@@H]2c3cc(Oc4cc(C[C@@H]5c6cc(O)c(OC)cc6CCN5C)ccc4O)c(OC)cc3CCN2C)cc1: 7.02 µM
- COc1ccc2cc1Oc1ccc(cc1)C[C@H]1c3cc(c(OC)cc3CCN1C)Oc1c(O)c(OC)cc3c1[C@H](C2)N(C)CC3: 4.39 µM
- COc1ccc2cc1Oc1ccc(cc1)C[C@H]1c3cc(c(OC)cc3CCN1C)Oc1c(OC)c(OC)cc3c1[C@H](C2)N(C)CC3: 27.9 µM
- CCOC(=O)[C@H]1O[C@@H]1C(=O)N[C@@H](CC(C)C)C(=O)NCCC(C)C [Aloxistatin, aloxistatin, reference compound]: > 50 µM
- COc1cc2c(cc1OC)[C@@H](Cc1ccc(Oc3cc(C[C@@H]4c5cc(OC)c(OC)cc5CCN4C)ccc3O)cc1)N(C)CC2: > 50 µM
- O=C1Nc2ccc(Cl)cc2[C@@](C#CC2CC2)(C(F)(F)F)O1: 0.000723 µM
